Tested on: FM3A
Assay: cells
Conditions: Mus musculus
outcome measure: IC50 (µg/mL)

molecule=Nc1ncnc2c1ncn2[C@@H]1O[C@H](C=NO)[C@@H](O)[C@@H]1O tgt=FM3A readout_relation== meas_value=12.7
molecule="Nc1ncnc2c1ncn2C1CC(O)C(C=O)O1 (stereo unspecified)" tgt=FM3A readout_relation== meas_value=50.9
molecule=Nc1ncnc2c1ncn2[C@@H]1O[C@H](C=O)[C@@H](O)[C@H]1O tgt=FM3A readout_relation== meas_value=15
molecule="Nc1ncnc2c1ncn2C1OC(/C=N/O)CC1O (stereo unspecified)" tgt=FM3A readout_relation=> meas_value=200
molecule="Nc1ncnc2c1ncn2C1OC(C=O)CC1O (stereo unspecified)" tgt=FM3A readout_relation=> meas_value=200
molecule="Nc1ncnc2c1ncn2C1O[C@H](/C=N/OCc2ccccc2)[C@@H](O)[C@H]1O (stereo partly specified)" tgt=FM3A readout_relation== meas_value=340

###

Listed below: MIC values for each entry.
Test system: HeLa
Assay: Minimum inhibitory concentration required to effect a microscopically visible change of cell morphology in HeLa cell culture.
Type: functional, Homo sapiens
Design: unit not given here
outcome measure: MIC

molecule="CO/N=C/[C@H]1OC(n2cnc3c(N)ncnc32)[C@H](O)[C@@H]1O (some centres undefined)" outcome_measure=MIC meas_value=>200
molecule="Nc1ncnc2c1ncn2C1O[C@H](/C=N/OCc2ccccc2)[C@@H](O)[C@H]1O (some centres undefined)" outcome_measure=MIC meas_value=>200
molecule=Nc1ncnc2c1ncn2[C@@H]1O[C@H](C=NO)[C@@H](O)[C@H]1O outcome_measure=MIC meas_value=>4
molecule="CCO/N=C/[C@H]1OC(n2cnc3c(N)ncnc32)[C@H](O)[C@@H]1O (some centres undefined)" outcome_measure=MIC meas_value=>200

###

Test system: HeLa
Experiment: cells
Conditions: Homo sapiens
outcome measure: EC50

compound="CO/N=C/[C@H]1OC(n2cnc3c(N)ncnc32)[C@H](O)[C@@H]1O (some centres undefined)" meas_value="> 200 mg/L"
compound="Nc1ncnc2c1ncn2C1O[C@H](/C=N/OCc2ccccc2)[C@@H](O)[C@H]1O (some centres undefined)" meas_value="> 200 mg/L"
compound="CCO/N=C/[C@H]1OC(n2cnc3c(N)ncnc32)[C@H](O)[C@@H]1O (some centres undefined)" meas_value="> 200 mg/L"
compound=Nc1ncnc2c1ncn2[C@@H]1O[C@H](C=NO)[C@@H](O)[C@H]1O meas_value="> 4 mg/L"

###

Form field: EC50 (one value per entry).
Test system: HeLa
Assay: cells
Settings: Homo sapiens
outcome measure: EC50

compound="Nc1ncnc2c1ncn2C1O[C@H](/C=N/OCc2ccccc2)[C@@H](O)[C@H]1O (some centres undefined)" meas_value="> 200 µg/mL"
compound=Nc1ncnc2c1ncn2[C@@H]1O[C@H](C=NO)[C@@H](O)[C@H]1O meas_value="> 40 µg/mL"
compound="CO/N=C/[C@H]1OC(n2cnc3c(N)ncnc32)[C@H](O)[C@@H]1O (some centres undefined)" meas_value="> 200 µg/mL"
compound="CCO/N=C/[C@H]1OC(n2cnc3c(N)ncnc32)[C@H](O)[C@@H]1O (some centres undefined)" meas_value="> 200 µg/mL"

###

System: Vero
Assay: cells
Conditions: Chlorocebus sabaeus
outcome measure: EC50

compound="Nc1ncnc2c1ncn2C1OC(C=O)CC1O (stereo unspecified)" meas_value="> 200 µg/mL"
compound="Nc1ncnc2c1ncn2C[C@H](O)CO [(S)-DHPA]" meas_value="70 µg/mL"
compound=Nc1ncnc2c1ncn2[C@@H]1O[C@H](C=NO)[C@@H](O)[C@H]1O meas_value="> 1 µg/mL"
compound="Nc1ncnc2c1ncn2C1CC(O)C(C=O)O1 (stereo unspecified)" meas_value="> 200 µg/mL"
compound=Nc1ccnc2c1ncn2[C@@H]1O[C@H](CO)[C@@H](O)[C@H]1O meas_value="4 µg/mL"
compound="CO/N=C/[C@H]1OC(n2cnc3c(N)ncnc32)[C@H](O)[C@@H]1O (stereo partly specified)" meas_value="> 100 µg/mL"
compound="Nc1ncnc2c1ncn2C1OC(/C=N/O)CC1O (stereo unspecified)" meas_value="300 µg/mL"
compound="Nc1ncnc2c1ncn2C1O[C@H](/C=N/OCc2ccccc2)[C@@H](O)[C@H]1O (stereo partly specified)" meas_value="> 100 µg/mL"
compound="Nc1ncnc2c1ncn2C1CC(O)C(/C=N/O)O1 (stereo unspecified)" meas_value="> 100 µg/mL"
compound=O=c1[nH]c(=O)n([C@H]2C[C@H](O)[C@@H](CO)O2)cc1/C=C/Br meas_value="> 400 µg/mL"
compound=Nc1ncnc2c1ncn2[C@@H]1O[C@H](C=O)[C@@H](O)[C@H]1O meas_value="> 200 µg/mL"

###

Below, each entry is listed alongside its reported EC50.
System: Vero
Test: cells
Settings: Chlorocebus sabaeus
outcome measure: EC50

compound="Nc1ncnc2c1ncn2C1OC(/C=N/O)CC1O (stereo not drawn)" meas_value="> 400 µg/mL"
compound=Nc1ncnc2c1ncn2[C@@H]1O[C@H](C=NO)[C@@H](O)[C@H]1O meas_value="> 1 µg/mL"
compound=Nc1ccnc2c1ncn2[C@@H]1O[C@H](CO)[C@@H](O)[C@H]1O meas_value="0.7 µg/mL"

###

Adenosylhomocysteinase (Homo sapiens, UniProt P23526): reported k2 for various compounds.
outcome measure: k2 (min⁻¹)

compound=Nc1ncnc2c1ncn2[C@@H]1O[C@H](C=NO)[C@@H](O)[C@H]1O outcome_measure=k2 meas_value=0.16
compound="Nc1ncnc2c1ncn2C1O[C@H](/C=N/OCc2ccccc2)[C@@H](O)[C@H]1O (stereo partly specified)" outcome_measure=k2 meas_value=0.036
compound=Nc1ncnc2c1ncn2[C@@H]1O[C@@H](C=NO)[C@@H](O)[C@H]1O outcome_measure=k2 meas_value=0.13
compound=Nc1ncnc2c1ncn2[C@@H]1O[C@@H](C=O)[C@@H](O)[C@H]1O outcome_measure=k2 meas_value=0.22
compound="CCO/N=C/[C@H]1OC(n2cnc3c(N)ncnc32)[C@H](O)[C@@H]1O (stereo partly specified)" outcome_measure=k2 meas_value=0.037
compound="CO/N=C/[C@H]1OC(n2cnc3c(N)ncnc32)[C@H](O)[C@@H]1O (stereo partly specified)" outcome_measure=k2 meas_value=0.048

###

System: MDCK
Assay type: functional, Canis lupus familiaris
Set-up: unit not given here
outcome measure: MIC

molecule=Nc1ncnc2c1ncn2[C@@H]1O[C@H](C=NO)[C@@H](O)[C@H]1O meas_value=0.8
molecule="Nc1ncnc2c1ncn2C1O[C@H](/C=N/OCc2ccccc2)[C@@H](O)[C@H]1O (some centres undefined)" meas_value=100
molecule="CO/N=C/[C@H]1OC(n2cnc3c(N)ncnc32)[C@H](O)[C@@H]1O (some centres undefined)" meas_value=20
molecule="CCO/N=C/[C@H]1OC(n2cnc3c(N)ncnc32)[C@H](O)[C@@H]1O (some centres undefined)" meas_value=4

###

Target: Adenosylhomocysteinase (Homo sapiens)
pKi: −log10 of the molar value.
Quick reference: pKi of the listed items.
outcome measure: pKi

molecule="CCO/N=C/[C@H]1OC(n2cnc3c(N)ncnc32)[C@H](O)[C@@H]1O (stereo partly specified)" meas_value=6.95
molecule="Nc1ncnc2c1ncn2C1O[C@H](/C=N/OCc2ccccc2)[C@@H](O)[C@H]1O (stereo partly specified)" meas_value=7.00
molecule=Nc1ncnc2c1ncn2[C@@H]1O[C@H](C=NO)[C@@H](O)[C@H]1O meas_value=6.17
molecule=Nc1ncnc2c1ncn2[C@@H]1O[C@@H](C=NO)[C@@H](O)[C@H]1O meas_value=6.65
molecule="CO/N=C/[C@H]1OC(n2cnc3c(N)ncnc32)[C@H](O)[C@@H]1O (stereo partly specified)" meas_value=7.02
molecule=Nc1ncnc2c1ncn2[C@@H]1O[C@@H](C=O)[C@@H](O)[C@H]1O meas_value=7.37

###

Test system: E6SM
Assay: Minimum inhibitory concentration required to effect a microscopically visible change of cell morphology in human embryonic skin-muscle (E6SM) cell culture.
Type: functional
Set-up: unit not given here
outcome measure: MIC

compound=Nc1ncnc2c1ncn2[C@@H]1O[C@H](C=NO)[C@@H](O)[C@@H]1O meas_value=>200
compound="CCO/N=C/[C@H]1OC(n2cnc3c(N)ncnc32)[C@H](O)[C@@H]1O (stereo partly drawn)" meas_value=>200
compound="Nc1ncnc2c1ncn2C1OC(/C=N/O)CC1O (stereo not drawn)" meas_value=>400

###

Reported MIC by item:
Tested on: Vero
Experiment: Minimum inhibitory concentration required to effect a microscopically visible change of cell morphology in Vero cell culture.
Type: functional, Chlorocebus sabaeus
Set-up: unit not given here
outcome measure: MIC

compound="CO/N=C/[C@H]1OC(n2cnc3c(N)ncnc32)[C@H](O)[C@@H]1O (some centres undefined)" outcome_measure=MIC meas_value=>200
compound="Nc1ncnc2c1ncn2C1O[C@H](/C=N/OCc2ccccc2)[C@@H](O)[C@H]1O (some centres undefined)" outcome_measure=MIC meas_value=>200
compound=Nc1ncnc2c1ncn2[C@@H]1O[C@H](C=NO)[C@@H](O)[C@H]1O outcome_measure=MIC meas_value=>1
compound="CCO/N=C/[C@H]1OC(n2cnc3c(N)ncnc32)[C@H](O)[C@@H]1O (some centres undefined)" outcome_measure=MIC meas_value=>200
